From: paper PMC11763264

# Tested on: K. pneumoniae (ATCC BAA-1705)
# Experiment description: microbe, parasite or virus in culture
# Format: cell-based, Klebsiella pneumoniae
# Condition summary: ATCC BAA-1705, 24 h
Non-standard residues stand in square brackets, D forms with d. Residues, ends and D or L forms follow the SMILES beside them. Dip = N[C@H](C(=O)O)C(c1ccccc1)c1ccccc1
Value kind: MIC (µM)

# Compound, Value kind, Test result
rows = [
    ("N=C(N)NCCC[C@H](NC(=O)[C@@H](NC(=O)[C@H](CCCNC(=N)N)NC(=O)[C@@H](NC(=O)[C@H](CCCNC(=N)N)NC(=O)[C@@H](NC(=O)[C@H](CCCNC(=N)N)NC(=O)[C@H](Cc1c[nH]c2ccccc12)NC(=O)[C@H](CCCNC(=N)N)NC(=O)[C@@H](N)Cc1c[nH]c2ccccc12)C(c1ccccc1)c1ccccc1)C(c1ccccc1)c1ccccc1)C(c1ccccc1)c1ccccc1)C(=O)O [((DipR)3(WR)2)] (H-WRWR[Dip]R[Dip]R[Dip]R-OH)", "MIC", 25),
    ("N=C(N)NCCC[C@@H]1NC(=O)[C@H](Cc2c[nH]c3ccccc23)NC(=O)[C@H](CCCNC(=N)N)NC(=O)[C@H](Cc2c[nH]c3ccccc23)NC(=O)[C@H](CCCNC(=N)N)NC(=O)[C@H](C(c2ccccc2)c2ccccc2)NC(=O)[C@H](CCCNC(=N)N)NC(=O)[C@H](Cc2c[nH]c3ccccc23)NC(=O)[C@H](CCCNC(=N)N)NC(=O)[C@H](Cc2c[nH]c3ccccc23)NC1=O [[(DipR)(WR)4]] (cyclo([Dip]RWRWRWRWR))", "MIC", 12.5),
    ("N=C(N)NCCC[C@@H]1NC(=O)[C@H](Cc2c[nH]c3ccccc23)NC(=O)[C@H](CCCNC(=N)N)NC(=O)[C@H](Cc2c[nH]c3ccccc23)NC(=O)[C@H](CCCNC(=N)N)NC(=O)[C@H](C(c2ccccc2)c2ccccc2)NC(=O)[C@H](CCCNC(=N)N)NC(=O)[C@H](C(c2ccccc2)c2ccccc2)NC(=O)[C@H](CCCNC(=N)N)NC(=O)[C@H](Cc2c[nH]c3ccccc23)NC1=O [[(DipR)2(WR)3]] (cyclo([Dip]R[Dip]RWRWRWR))", "MIC", 12.5),
]
